Tested on: SDMA in HCT116-MTAP-knockout cell line
Test: Cell symmetric dimethylarginine (SDMA) test, In-cell Western, HCT116-MTAP-knockout
Assay type: cell-based
Details: Homo sapiens, 96 h, IC50 score class, read-out: Cell 96 h SDMA Inhibition (HCT116-MTAP−/−) (score)
pIC50: −log10 of the molar value.
reported_metric: pIC50

>>> df
                               given_smiles        result
0  Cn1cc2c(n1)c(=O)n(-c1cccnc1C#N)c1nc(C(F)(F)F)ccc21        > 6.70
1  Cn1cc2c(n1)c(=O)n(-c1cccc3[nH]ncc13)c1nc(C(F)(F)F)c(F)cc21  6.00 to 6.70
2  Cc1[nH]nc2c(=O)n(-c3cccnc3)c3nc(C(F)(F)F)ccc3c12        > 6.70
3  COc1ncccc1-n1c(=O)c2nn(C)cc2c2ccc(C(F)(F)F)nc21        > 6.70
4  CCn1cc2c(n1)c(=O)n(-c1cccnc1)c1cc(Cl)ccc21        > 6.70

For "O=c1c2nn(CCO)cc2c2ccc(Cl)cc2n1-c1cccnc1" , what is its reported pIC50? 6.00 to 6.70

And "Cc1ncccc1-n1c(=O)c2[nH]ncc2c2ccc(OC(F)(F)F)cc21" ? > 6.70

One more molecule: "Cn1cc2c(n1)c(=O)n(-c1cccnc1C(F)(F)F)c1cc(Cl)ccc21" 6.00 to 6.70

* * *

Test: Pharmacokinetic test in mice (IV and PO)
Format: in vivo
Conditions: mouse, plasma; BALB/c mice, IV 2 mg/kg, PO 10 mg/kg
reported_metric: bioavailability (%)

Answered cases to consult:
In [3]: df
Out[3]:
                                   compound  reported_metric  result_number
0  O=c1c2nn(C(F)F)cc2c2cc(F)c(C3CC3)nc2n1-c1cccnc1C1CC1  bioavailability             65
1  Cc1c2c(nn1C)c(=O)n(-c1cccnc1)c1nc(C(F)(F)F)ccc21  bioavailability            150
2  CCn1nc2c(=O)n(-c3cccnc3)c3cc(Cl)ccc3c2c1C  bioavailability            127

[P] Cc1ncccc1-n1c(=O)c2nn(C)cc2c2ccc(C(F)(F)F)nc21 (single isomer, unassigned)
[Q] Cn1cc2c(n1)c(=O)n(-c1cccc3[nH]ncc13)c1cc(Cl)ccc21
[R] [2H]C([2H])([2H])n1cc2c(n1)c(=O)n(-c1cccc3[nH]ncc13)c1nc(C(F)(F)F)ccc21
[S] O=c1c2nn(C(F)F)cc2c2ccc(C(F)(F)F)nc2n1-c1cccc2[nH]ncc12
Provide the items ranked by increasing bioavailability. List the labels, following the order given in the request. S, Q, R, P
(S: 80%, Q: 115%, R: 175%, P: 274%)

[P] Cn1cc2c(n1)c(=O)n(-c1cccc3[nH]ncc13)c1cc(Cl)c(F)cc21
[Q] Cc1c2c(nn1C(F)F)c(=O)n(-c1cccc3[nH]ncc13)c1nc(C(F)(F)F)ccc21
Pick one, P or Q : lowest reported bioavailability. Lab note: record the label of whichever item you select. Q
(Q: 126%, P: 220%)

* * *

Target: CYP1A2 (Homo sapiens, UniProt P05177)
Sequence (P05177 1-516): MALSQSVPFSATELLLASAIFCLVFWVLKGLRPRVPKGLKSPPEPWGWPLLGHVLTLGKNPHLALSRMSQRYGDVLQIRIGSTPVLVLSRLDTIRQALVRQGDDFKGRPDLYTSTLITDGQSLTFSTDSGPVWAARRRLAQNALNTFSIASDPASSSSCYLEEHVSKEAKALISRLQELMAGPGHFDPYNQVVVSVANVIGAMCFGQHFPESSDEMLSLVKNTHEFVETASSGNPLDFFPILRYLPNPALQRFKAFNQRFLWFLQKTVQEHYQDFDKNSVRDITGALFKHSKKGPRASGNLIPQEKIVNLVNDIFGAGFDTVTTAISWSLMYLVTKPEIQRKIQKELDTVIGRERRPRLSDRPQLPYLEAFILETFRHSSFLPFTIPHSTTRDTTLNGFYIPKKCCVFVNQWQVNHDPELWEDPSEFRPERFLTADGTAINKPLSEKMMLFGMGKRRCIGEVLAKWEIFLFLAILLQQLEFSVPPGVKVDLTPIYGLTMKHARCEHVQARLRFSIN
pIC50: −log10 of the molar value.
pIC50 for assorted compounds

Record excerpt, results attached:
>>> df
                                   compound  result
0  Cn1cc2c(n1)c(=O)n(-c1cccnc1)c1cc(Cl)ccc21  < 5.00
1  Cn1cc2c(n1)c(=O)n(-c1cccc3[nH]ncc13)c1nc(C(F)(F)F)ccc21  < 4.52
2  Cc1ncccc1-n1c(=O)c2nn(C)cc2c2ccc(C(F)(F)F)nc21 (single isomer, unassigned)  < 5.00

# ---- query compound ----
What pIC50 appears in the records for this compound with CYP1A2 (Homo sapiens, UniProt P05177)? "Cn1cc2c(n1)c(=O)n(-c1cccc3[nH]ncc13)c1cc(Cl)ccc21" < 5.00

* * *

Tested on: HCT116-MTAP-knockout (−/−) cell strain
Test: Tumor cell proliferation inhibition assay (CellTiter-Glo), HCT116-MTAP-knockout (-/-)
Assay type: cell-based
Details: Homo sapiens, 120 h, HCT116-MTAP-knockout (−/−) cells, 5-day treatment, IC50 score, read-out: Tumor cell 5-day relative growth inhibition (HCT116-MTAP−/−) (nM), score
Listed next: entries and their corresponding IC50.

Record request: IC50 value, item "Cn1cc2c(n1)c(=O)n(-c1cccnc1C(F)(F)F)c1nc(C(F)(F)F)ccc21" < 500 nM

And "Cn1cc2c(n1)c(=O)n(-c1cccc3[nH]ncc13)c1nc(C(F)(F)F)c(F)cc21" ? < 500 nM

Would you mind doing "CCn1cc2c(n1)c(=O)n(-c1ccccc1)c1cc(Cl)ccc21" as well? ≥ 2000 nM

Now the same for "Cc1ncccc1-n1c(=O)c2nn(C)cc2c2ccc(Cl)cc21" < 500 nM

Further, for "[2H]C([2H])([2H])n1cc2c(n1)c(=O)n(-c1cccc3[nH]ncc13)c1nc(C(F)(F)F)ccc21" ? < 500 nM

Would you mind doing "O=c1c2nn(C(F)F)cc2c2cc(F)c(C3CC3)nc2n1-c1cccnc1C1CC1" as well? < 500 nM

Next compound up: "CN1CCN(c2ccc(Cn3cc4c(n3)c(=O)n(-c3cccc5[nH]ncc35)c3cc(Cl)c(F)cc43)cn2)CC1" ≥ 2000 nM

* * *

Experiment: Pharmacokinetic test in rats (IV and PO)
Type: in vivo
Details: rat, plasma; SD rats, PO 10 mg/kg; read-out: T½ (converted)
reported_metric: half-life (h)
# output: bare number, implied unit h

I would be grateful if you could share the reported half-life for Cn1cc2c(n1)c(=O)n(-c1cccc3[nH]ncc13)c1cc(Cl)c(F)cc21 [Compound B257] . 72.8

* * *

Assay: Stability test in liver microsomes, rat
Assay type: in vitro ADME, Sprague-Dawley rats
Settings: Sprague-Dawley; rat liver microsomes 0.5 mg/mL, 1.0 μM substrate, up to 60 min; read-out: Metabolic half-life in rat liver microsome (T½, min)
reported_metric: half-life at 1 μM (min)

[A] Cn1cc2c(n1)c(=O)n(-c1cccc(O)c1)c1nc(C(F)(F)F)ccc21 [Compound B148]
[B] Cn1cc2c(n1)c(=O)n(-c1ccccc1Cl)c1nc(C(F)(F)F)ccc21 [Compound B182]
For the two items A and B , which reports the higher half-life at 1 μM value? Your answer should be the label of the entry you select. A
(A: 142 min, B: 20.4 min)

* * *

System: SDMA in human colon cancer cell line HCT116
Test: Cell symmetric dimethylarginine (SDMA) test, In-cell Western, HCT116 (MTAP wild-type)
Assay type: cell-based
Details: Homo sapiens, HCT-116, 96 h, IC50 score class, read-out: Cell 96 h SDMA Inhibition (HCT116-MTAP+/+) (score)
pIC50: −log10 of the molar value.
Reported pIC50 by item:

                               given_smiles  result
0  O=c1c2nn(C(F)F)cc2c2cc(F)c(Cl)cc2n1-c1cccnc1C(F)(F)F  < 5.52

Form: Entry = "Cc1ncccc1-n1c(=O)c2[nH]ncc2c2ccc(Cl)cc21" | System = SDMA in human colon cancer cell line HCT116 | pIC50 = ____ > 6.70

Then this compound: "Cn1cc2c(n1)c(=O)n(-c1cccc3ccccc13)c1cc(Cl)c(F)cc21" < 5.52

Let us now turn to "CCn1cc2c(n1)c(=O)n(-c1cccnc1)c1cc(Cl)ccc21" < 5.52

* * *

Parameter: IC50. Scope: all listed entries.
Target: MAT2A recombinant protein (Homo sapiens, UniProt P31153)
Sequence (P31153 whole entry): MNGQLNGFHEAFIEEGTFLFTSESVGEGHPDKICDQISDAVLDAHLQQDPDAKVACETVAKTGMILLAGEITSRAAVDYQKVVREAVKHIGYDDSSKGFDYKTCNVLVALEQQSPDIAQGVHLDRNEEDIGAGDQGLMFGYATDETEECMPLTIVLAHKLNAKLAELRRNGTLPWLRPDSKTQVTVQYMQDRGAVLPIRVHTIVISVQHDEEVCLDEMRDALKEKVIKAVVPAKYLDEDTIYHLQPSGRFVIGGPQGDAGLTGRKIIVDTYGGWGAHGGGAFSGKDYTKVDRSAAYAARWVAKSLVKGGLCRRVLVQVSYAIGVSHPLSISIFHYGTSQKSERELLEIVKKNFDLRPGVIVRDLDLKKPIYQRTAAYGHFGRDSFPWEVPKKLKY
Assay: MAT2A inhibitory activity (malachite green colorimetric enzyme assay)
Type: biochemical
Conditions: IC50 score class; read-out: MAT2A Inhibition (score)

Field: example entries. Status: answers known.
In [3]: df
Out[3]:
                               given_smiles                               system_name  reported_metric    result
0  CN1CCN(c2ccc(Cn3cc4c(n3)c(=O)n(-c3cccc5[nH]ncc35)c3cc(Cl)c(F)cc43)cn2)CC1  MAT2A recombinant protein (Homo sapiens, UniProt P31153)             IC50  < 100 nM
1  Cn1cc2c(n1)c(=O)n(-c1cccc3[nH]nc(Br)c13)c1cc(Cl)ccc21  MAT2A recombinant protein (Homo sapiens, UniProt P31153)             IC50  < 100 nM
2  Cn1cc2c(n1)c(=O)n(Cc1cn[nH]c1)c1nc(C(F)(F)F)ccc21  MAT2A recombinant protein (Homo sapiens, UniProt P31153)             IC50  < 100 nM

As a next step, examine the molecule that follows.
Consider the molecule "CCn1cc2c(n1)c(=O)n(-c1cccnc1)c1nc(C(F)(F)F)ccc21" and give its measured IC50. < 100 nM
